Overview of reported TGI across a group of molecules:
System: HT29 colon
Assay: NCI tumour cell line growth inhibition, 48 h

{"molecule": "COc1ccc(-c2cc(Nc3ccnc(N4CCOCC4)n3)on2)cc1", "system under test": "HT29 colon", "TGI": "11.5 µM"}
{"molecule": "CCCC(=O)[O-].CCCC(=O)[O-].NCCN.NCCN.[Co+3].[O-][Cl+3]([O-])([O-])[O-]", "system under test": "HT29 colon", "TGI": "> 100 µM"}
{"molecule": "OC(C/C=N/N=C/CC(O)(C(F)(F)Cl)C(F)(F)Cl)(C(F)(F)Cl)C(F)(F)Cl", "system under test": "HT29 colon", "TGI": "> 10 µM"}
{"molecule": "CCOc1ccc(N=Cc2c3ccccc3nc3ccccc23)cc1", "system under test": "HT29 colon", "TGI": "> 100 µM"}
{"molecule": "Cn1nnnc1SC(F)(F)c1nc2ccccc2o1", "system under test": "HT29 colon", "TGI": "> 100 µM"}
{"molecule": "COC(=O)C1=C(OC)[C@H]2C#C/C=C\\C#C[C@@H]3Nc4c(cc(O)c5c4C(=O)c4ccccc4C5=O)[C@]24O[C@@]34[C@H]1C", "system under test": "HT29 colon", "TGI": "< 0.0409 µM"}
{"molecule": "Cc1ccc2c(c1)CC1(Cc3cccc(C)c3C1=O)C2=O (stereo not given)", "system under test": "HT29 colon", "TGI": "> 100 µM"}
{"molecule": "COc1ccc(N2C(=O)C(=O)N(c3ccc(N=Nc4ccccc4)cc3)C2=S)cc1", "system under test": "HT29 colon", "TGI": "37.1 µM"}
{"molecule": "COc1ccc(C2COc3c(ccc(O)c3C)C2)cc1OC (stereo not given)", "system under test": "HT29 colon", "TGI": "> 200 µM"}
{"molecule": "CC(=O)Nc1c(C(=N)C#N)ncn1CCO", "system under test": "HT29 colon", "TGI": "> 100 µM"}

Provenance of the data: PubChem BioAssay (NCI)
